Please respond with reported STK11 functional score for every item in the list.
B1: library; numbered along this chain (parent)
chain: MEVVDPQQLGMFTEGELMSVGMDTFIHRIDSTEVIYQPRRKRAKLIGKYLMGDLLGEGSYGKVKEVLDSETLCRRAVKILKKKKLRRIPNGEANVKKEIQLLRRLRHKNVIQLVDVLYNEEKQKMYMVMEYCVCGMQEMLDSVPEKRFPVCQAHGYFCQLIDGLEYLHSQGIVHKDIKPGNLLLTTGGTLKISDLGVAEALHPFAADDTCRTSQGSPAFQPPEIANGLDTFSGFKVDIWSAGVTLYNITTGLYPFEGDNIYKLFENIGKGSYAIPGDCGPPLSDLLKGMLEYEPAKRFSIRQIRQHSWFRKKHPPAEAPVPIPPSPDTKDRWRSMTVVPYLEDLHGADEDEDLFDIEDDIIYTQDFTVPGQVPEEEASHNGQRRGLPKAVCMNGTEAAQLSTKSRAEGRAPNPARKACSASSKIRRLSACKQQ

- Variants of: B1
- experiment.notes: STK11 functional score (HeLa growth suppression), rescaled enrichment; synonymous median = 1, nonsense median = 0 (normalised score)
- particulars: with HeLa; variant type: missense
Give bare numbers.

Answered examples (6):
INSERT INTO measurements (mutation_descriptor, number) VALUES
  ('Y272M', 1.63),
  ('I274S', 0.98),
  ('A417H', 0.849),
  ('R106G', 0.687),
  ('G171A', 1.18),
  ('R74H', 1.6);

Please supply STK11 functional score for each of the following items, keeping them in order.
1. P221F
2. E145Y
3. L102G
4. F148R
5. T230K
6. H313R

1. -0.0165
2. 1.12
3. 1.07
4. -0.0906
5. 1.29
6. -0.189
